System: A498 complex spheroids with HUVEC/MSC, growth
Experiment: Anticancer human tumor A498 cell line growth inhibition [AhR]; active = viability on the fitted dose curve at most 10% of control; inactive = the rest;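 also: luminescence signal used as a surrogate for viable cells; seven day exposure starting three days after spheroid seeding; luminescence viability scaled so 100% equals DMSO vehicle wells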
Conditions: second compound 0.316 µM; first compound 3.16 µM
Outcomes: active, inactive

{"columns": ["Compound", "Assayed System", "Category Label"],
 "data": [
  ["O=C(c1cc(Cc2n[nH]c(=O)c3ccccc23)ccc1F)N1CCN(C(=O)C2CC2)CC1 + Cc1cncc(-c2nc(NCCc3c[nH]c4ccccc34)c3ncn(C(C)C)c3n2)c1", "A498 complex spheroids with HUVEC/MSC, growth", "inactive"],
  ["COc1cc(C2c3cc4c(cc3C(OC3OC5COC(C)OC5C(O)C3O)C3COC(=O)C23)OCO4)cc(OC)c1O (stereo not given) + CC(CO)NC(=O)c1cc(-c2ccc(Cl)cc2)nn(-c2cnn(C)c2)c1=O", "A498 complex spheroids with HUVEC/MSC, growth", "inactive"],
  ["CC1(C)CCC(CN2CCN(c3ccc(C(=O)NS(=O)(=O)c4ccc(NCC5CCOCC5)c([N+](=O)[O-])c4)c(Oc4cnc5[nH]ccc5c4)c3)CC2)=C(c2ccc(Cl)cc2)C1 + Cc1ccccc1N=Nc1ccc(NC(=O)c2ccnn2C)c(C)c1", "A498 complex spheroids with HUVEC/MSC, growth", "inactive"],
  ["COc1cccc2c1C(=O)c1c(O)c3c(c(O)c1C2=O)CC(O)(C(=O)CO)CC3OC1CC(N)C(O)C(C)O1 (stereo not given) + Cc1ccccc1N=Nc1ccc(NC(=O)c2ccnn2C)c(C)c1", "A498 complex spheroids with HUVEC/MSC, growth", "active"],
  ["O=C(C=Cc1cccc(S(=O)(=O)Nc2ccccc2)c1)NO + CC(CO)NC(=O)c1cc(-c2ccc(Cl)cc2)nn(-c2cnn(C)c2)c1=O", "A498 complex spheroids with HUVEC/MSC, growth", "inactive"]
]}

====

Test system: A498 complex spheroids with HUVEC/MSC, growth
Assay: Anticancer human tumor A498 cell line growth inhibition [AhR];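 also: luminescence signal used as a surrogate for viable cells; seven day exposure starting three days after spheroid seeding; luminescence viability scaled so 100% equals DMSO vehicle wells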
Details: second compound 0.316 µM; first compound 10 µM; stronger effect = lower value
Measured Attribute: viability, T/C (%)

{"columns": ["Molecule", "Numeric Readout"],
 "data": [
  ["COc1cc(C2c3cc4c(cc3C(OC3OC5COC(C)OC5C(O)C3O)C3COC(=O)C23)OCO4)cc(OC)c1O (stereo not drawn) + Cc1cncc(-c2nc(NCCc3c[nH]c4ccccc34)c3ncn(C(C)C)c3n2)c1", 59],
  ["Nc1ccccc1NC(=O)c1ccc(CNC(=O)OCc2cccnc2)cc1 + Cc1cncc(-c2nc(NCCc3c[nH]c4ccccc34)c3ncn(C(C)C)c3n2)c1", 1.77],
  ["NS(=O)(=O)OCC1CC(n2ccc3c(NC4CCc5ccccc54)ncnc32)CC1O (stereo not drawn) + Cc1ccccc1N=Nc1ccc(NC(=O)c2ccnn2C)c(C)c1", 21.3]
]}

====

System: A498 complex spheroids with HUVEC/MSC, growth
Experiment: Anticancer human tumor A498 cell line growth inhibition [AhR];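 also: luminescence signal used as a surrogate for viable cells; seven day exposure starting three days after spheroid seeding; luminescence viability scaled so 100% equals DMSO vehicle wells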
Settings: second compound 1 µM; first compound 0.3 µM; stronger effect = lower value
Description: Multicellular complex tumor spheroid response to aryl hydrocarbon receptor antagonists in combination with a variety of drugs and investigational agents in selected tumor cell lines […] Compounds. […] If the clinical Cmax for an agent had not been determined, the highest concentration tested was 10 microM (Table 1). […]

{"columns": ["Compound", "Assayed System", "viability, T/C (%)"],
 "data": [
  ["CCN(c1cc(-c2ccc(CN3CCOCC3)cc2)cc(C(=O)NCc2c(C)cc(C)[nH]c2=O)c1C)C1CCOCC1 + CC(CO)NC(=O)c1cc(-c2ccc(Cl)cc2)nn(-c2cnn(C)c2)c1=O", "A498 complex spheroids with HUVEC/MSC, growth", 92.3],
  ["CC(C)CC(NC(=O)C(Cc1ccccc1)NC(=O)c1cnccn1)B(O)O (stereo unspecified) + Cc1ccccc1N=Nc1ccc(NC(=O)c2ccnn2C)c(C)c1", "A498 complex spheroids with HUVEC/MSC, growth", 0.61],
  ["CCc1c2c(nc3ccc(O)cc13)-c1cc3c(c(=O)n1C2)COC(=O)[C@]3(O)CC + CC(CO)NC(=O)c1cc(-c2ccc(Cl)cc2)nn(-c2cnn(C)c2)c1=O", "A498 complex spheroids with HUVEC/MSC, growth", 34.1],
  ["CCN(c1cc(-c2ccc(CN3CCOCC3)cc2)cc(C(=O)NCc2c(C)cc(C)[nH]c2=O)c1C)C1CCOCC1 + Cc1ccccc1N=Nc1ccc(NC(=O)c2ccnn2C)c(C)c1", "A498 complex spheroids with HUVEC/MSC, growth", 91.2],
  ["Nc1ncn(C2CC(O)C(CO)S2)c(=O)n1 (stereo unspecified) + CC(CO)NC(=O)c1cc(-c2ccc(Cl)cc2)nn(-c2cnn(C)c2)c1=O", "A498 complex spheroids with HUVEC/MSC, growth", 70.3],
  ["O=C(C=Cn1cnc(-c2cc(C(F)(F)F)cc(C(F)(F)F)c2)n1)NNc1cnccn1 + CC(CO)NC(=O)c1cc(-c2ccc(Cl)cc2)nn(-c2cnn(C)c2)c1=O", "A498 complex spheroids with HUVEC/MSC, growth", 23.1]
]}
